Values from ChEMBL document CHEMBL1649165

Measured MIC50 accompanies every entry in the list below.
System: Cladophialophora bantiana
Assay explanation: Antimicrobial activity against Cladophialophora bantiana by broth microdilution method
Format: functional
*1 amine or outer side, *2 acyl side, *3 side chain or, on linkers, in order; H or OH if unused. Where a SMILES comes first, the peptide text is derived from it. Bridges are numbered along the chain shown (N, C = ends). [ ]: non-standard residue; d: D form. The star is where a group is joined. hTyr(3S-OH,4S-OH,3'-OSO3H) = N[C@H](C(=O)O)[C@H](O)[C@@H](O)c1ccc(O)c(OS(=O)(=O)O)c1; Orn(4R-OH,5R-OH) = O=C([C@H](C[C@@H](O)[C@@H](O)N[*:3])N[*:1])[*:2]; Pro(3S-OH,4S-Me) = C[C@H]1CN[C@H](C(=O)O)[C@H]1O; X1 = CCCCCOc1ccc(-c2cc(-c3ccc(C(=O)*)cc3)no2)cc1; Gln(3R-OH) = NC(=O)C[C@@H](O)[C@H](N)C(=O)O; Hyp = O=C(O)[C@@H]1C[C@@H](O)CN1

Compound	MIC50
C[C@@H](c1ncncc1F)[C@](O)(Cn1cncn1)c1ccc(F)cc1F [VORICONAZOLE]	0.06 µg/mL
CCCCCOc1ccc(-c2cc(-c3ccc(C(=O)N[C@H]4C[C@@H](O)[C@@H](O)NC(=O)[C@@H]5[C@@H](O)[C@@H](C)CN5C(=O)[C@H]([C@H](O)CC(N)=O)NC(=O)[C@H]([C@H](O)[C@@H](O)c5ccc(O)c(OS(=O)(=O)O)c5)NC(=O)[C@@H]5C[C@@H](O)CN5C(=O)[C@H]([C@@H](C)O)NC4=O)cc3)no2)cc1 [MICAFUNGIN] (X1-[Orn(4R-OH,5R-OH)]T[Hyp][hTyr(3S-OH,4S-OH,3'-OSO3H)][Gln(3R-OH)][Pro(3S-OH,4S-Me)]; lactam 1-C)	0.03 µg/mL
